test system: CP265; assay: qHTS profiling for inhibitors of Plasmodium falciparum proliferation (AID 504749); note: nearly all actives have a fitted effect of over 60% in size; conditions: P. falciparum in erythrocytes, SYBR Green DNA, 72 h; series mostly up to 28.7 µM
Records with an inconclusive call do not appear. Calls of active or inactive are those of the source. Calls come from the whole dose curve; as a rule, active = well fitted inhibition curve with a large enough effect; inconclusive = small, poorly fitted or top-dose-only effect; inactive = flat fitted curve, though single readings scatter.
Write down the outcome that applies. Available outcomes: active, inactive

- Compound: "NS(=O)(=O)c1cc2c(cc1Cl)NC(CSCc1ccccc1)=NS2(=O)=O"
  Class Name: "inactive"
- Compound: "Cc1cccc(C)c1NC(=O)CN(CC(=O)O)CC(=O)O"
  Class Name: "inactive"
- Compound: "Cc1cc(C(C#N)c2ccc(Cl)cc2)c(Cl)cc1NC(=O)c1cc(I)cc(I)c1O (stereo not drawn)"
  Class Name: "inactive"
- Compound: "CCCCCCCCCCCCOS(=O)(=O)O"
  Class Name: "inactive"
- Compound: "OCCN1CCN(CCCN2c3ccccc3Sc3ccc(Cl)cc32)CC1"
  Class Name: "active"

Ask | Tell me the assay call for CC(O)CN(CCN(CC(C)O)CC(C)O)CC(C)O (stereo not drawn) please.
Reply | inactive

Ask | And then `CCCn1cnc2c1c(=O)n(CCCCC(C)=O)c(=O)n2C` , what is it?
Reply | inactive

----------
experiment: AP1 Signaling Pathway (AID 357); conditions: ME-180 (cervical carcinoma) AP-1-bla reporter, EGF-induced, beta-lactamase ratio, 5 h; at 38 µM (top of the series);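 note: ME-180 reporter cells stimulated with EGF at its EC50 level; % is set by controls: 0 for no effect and ±100 for the full control effect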
Results filed as inconclusive are left out. Activity calls are given as the source filed them. The call rests on the fitted dose curve; in most records, active means well fitted curve in either direction with a large enough effect (not every such curve was filed as active); inconclusive means small, poorly fitted or top-dose-only effect, or another doubt; inactive means flat fitted curve, though single readings scatter.
This section presents molecules with their documented activity change, negative = inhibition values.

# example entries with known answers
- Molecule: "C=Cc1c(C)c2cc3[nH]c(cc4nc(cc5nc(cc1[nH]2)C(C)=C5CCC(=O)O)C(CCC(=O)O)=C4C)c(C)c3C=C"
  activity change, negative = inhibition: "-5.02% (inactive)"
- Molecule: "C#CCN(C)Cc1ccccc1"
  activity change, negative = inhibition: "1.9% (inactive)"
- Molecule: "CCCCCCCCCCCCCCCC(=O)NCCO"
  activity change, negative = inhibition: "11.1% (inactive)"
- Molecule: "CCN(CC)CCOC(=O)C1(C2CCCCC2)CCCCC1"
  activity change, negative = inhibition: "20.8% (inactive)"

Ask | Quick one: activity change, negative = inhibition of `NC1CCN(c2cccc(Cl)n2)CC1` ?
Reply | 2.98% (inactive)

Ask | And then CC1=C(CC(=O)O)c2cc(F)ccc2/C1=C\c1ccc(S(C)=O)cc1 (configuration not stated) , what is it?
Reply | -0.0105% (inactive)

Ask | And then `CC1=C(CC(=O)O)c2cc(F)ccc2/C1=C\c1ccc(S(C)(=O)=O)cc1` , what is it?
Reply | 11.6% (inactive)

Ask | And then `CC(C)NC[C@H](O)c1ccc(O)c(O)c1` , what is it?
Reply | -3.34% (inactive) [middle of 4 runs]

Ask | And then `CCN(CC)CCNC(=O)c1cc(Cl)c(N)cc1OC` , what is it?
Reply | 17% (inactive)

----------
system: MKL-1; assay: qHTS assay to identify novel small-molecules to repurpose for Merkel cell carcinoma treatment (AID 1296009); conditions: MCC and control cell lines, CellTiter-Glo viability, 72 h; series mostly up to 46 µM; note: nearly all actives have a fitted effect of over 60% in size
Inconclusive results are not listed. Activity calls are given as the source filed them. The call rests on the fitted dose curve; in most records, active means well fitted inhibition curve with a large enough effect; inconclusive means small, poorly fitted or top-dose-only effect; inactive means flat fitted curve, though single readings scatter.
Write down the outcome that applies. Available outcomes: true (1) (active), false (0) (inactive)

Example entries and their recorded answers appear below.
- Molecule: "NCCNCCNCCN"
  Class Name: "false (0)"
- Molecule: "CC(CN1c2ccccc2Sc2ccccc21)N(C)C (centres undefined)"
  Class Name: "false (0)"

Ask | Tell me the assay call for `Nc1cc(=O)[nH]c(N)n1` please.
Reply | false (0)

Ask | And then `CC[N+](CC)(CC)CCOc1ccc(/C=C/c2ccccc2)cc1` , what is it?
Reply | true (1)

Ask | And then `O=C(CCCN1CCN(c2ccccn2)CC1)c1ccc(F)cc1` , what is it?
Reply | false (0)

Ask | And then `CCCCOc1cc(C(=O)OCCN(CC)CC)ccc1N` , what is it?
Reply | false (0)

Ask | And then `COc1ccc2cc1Oc1cc3c(cc1OC)CC[N+](C)(C)[C@H]3Cc1ccc(cc1)Oc1c(OC)c(OC)cc3c1[C@@H](C2)[N+](C)(C)CC3` , what is it?
Reply | false (0)

Ask | And then `O=C(O)CN1C(=O)c2cccc3cccc(c23)C1=O` , what is it?
Reply | false (0)

Ask | And then `Cc1cc2c(cc1S(N)(=O)=O)S(=O)(=O)CCC2` , what is it?
Reply | false (0)

----------
test: Cell Viability - HepG2 (AID 433); conditions: qHTS;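 note: potency is the fitted concentration of half-maximal effect; cells exposed to compound for 40 hours; potency for ATP loss meaning cytotoxicity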
Results filed as inconclusive are left out. Calls of active or inactive are those of the source. The call rests on the fitted dose curve.
Property Measured: Potency

# example entries with known answers
- Item Smiles: "CCCCCCCCCCCCOS(=O)(=O)O"
  Potency: "> 92 µM (inactive)"
- Item Smiles: "NC(=O)c1ncn([C@@H]2O[C@H](CO)[C@@H](O)[C@H]2O)n1"
  Potency: "> 92 µM (inactive)"
- Item Smiles: "Oc1cccc(O)c1"
  Potency: "> 92 µM (inactive)"
- Item Smiles: "CC12CCC(CC1)C(C)(C)O2"
  Potency: "> 92 µM (inactive)"
- Item Smiles: "NCCNCCNCCNCCN"
  Potency: "> 92 µM (inactive)"
- Item Smiles: "C[C@]12C[C@H](O)[C@H]3[C@@H](CCC4=CC(=O)CC[C@@]43C)[C@@H]1CC[C@@H]2C(=O)CO"
  Potency: "> 92 µM (inactive)"
- Item Smiles: "Nc1ccc(S(=O)(=O)Nc2nccs2)cc1"
  Potency: "> 92 µM (inactive)"
- Item Smiles: "COC(=O)C1=C(C)NC(C)=C(C(=O)OC)C1c1ccccc1[N+](=O)[O-]"
  Potency: "> 92 µM (inactive)"
- Item Smiles: "Cc1cc(CC(=O)O)n(C)c1C(=O)c1ccc(Cl)cc1"
  Potency: "> 92 µM (inactive)"
- Item Smiles: "CC1(C)[C@@H]2CC[C@@]1(C)C(=O)C2"
  Potency: "> 92 µM (inactive)"

Ask | Quick one: Potency of `NCCNCCNCCN` ?
Reply | > 92 µM (inactive)

----------
assay: Primary qHTS for inhibitors of nuclear receptor binding SET domain protein 2 (NSD2) in an RCH-ACV wild type WT cells (2C) (AID 1645877); conditions: RCH-ACV (leukaemia line) NSD2 WT (2C) viability, CellTiter-Glo, 72 h; series mostly up to 44.9 µM; note: nearly all actives have a fitted effect of over 70% in size
Inconclusive results are not listed. Active and inactive are the calls of the source. Calls come from the whole dose curve; as a rule, active = well fitted inhibition curve with a large enough effect; inconclusive = small, poorly fitted or top-dose-only effect; inactive = no such curve, though single readings can be large or run the other way.
Write down the outcome that applies. Available outcomes: active, inactive

Example entries and their recorded answers appear below.
- Molecule: "C[C@@H]1CN(c2c(F)c(F)c3c(=O)c(C(=O)O)cn(C4CC4)c3c2F)C[C@H](C)N1"
  Class Name: "inactive"
- Molecule: "CCOC(=O)c1ccc(O)cc1"
  Class Name: "inactive"
- Molecule: "Oc1cccc(O)c1"
  Class Name: "inactive"

Ask | Tell me the assay call for `CCCn1cnc2c1c(=O)n(CCCCC(C)=O)c(=O)n2C` please.
Reply | inactive

Ask | And then `Nc1ccc(S(=O)(=O)NC(=O)c2ccccc2)cc1` , what is it?
Reply | inactive

Ask | And then O=C(O)CC(O)C(=O)O (stereo not given) , what is it?
Reply | inactive

Ask | And then `NC(=O)c1ncn([C@@H]2O[C@H](CO)[C@@H](O)[C@H]2O)n1` , what is it?
Reply | active

Ask | And then C[C@H](NC(CCc1ccccc1)C(=O)O)C(=O)N1CCC[C@H]1C(=O)O (stereo not given in full) , what is it?
Reply | inactive

Ask | And then `CC(C)(C)C(=O)NCCCC(=O)O` , what is it?
Reply | inactive

Ask | And then `N[C@@H](CSCCCO)C(=O)O` , what is it?
Reply | inactive

Ask | And then CCN(CC)C(=O)Nc1ccc(OCC(O)CNC(C)(C)C)c(C(C)=O)c1 (stereo not given) , what is it?
Reply | inactive

Ask | And then `CC1=C(C/C=C(\C)CCC[C@H](C)CCC[C@H](C)CCCC(C)C)C(=O)c2ccccc2C1=O` , what is it?
Reply | inactive

Ask | And then CC(O)CN(CCN(CC(C)O)CC(C)O)CC(C)O (stereo not given) , what is it?
Reply | inactive

Ask | And then `CNC(=O)Oc1ccc2c(c1)[C@]1(C)CCN(C)[C@@H]1N2C` , what is it?
Reply | inactive

Ask | And then N[C@H]1C(O)O[C@H](CO)[C@@H](O)[C@@H]1O (stereo not given in full) , what is it?
Reply | inactive

Ask | And then `OCCN1CCN(CCCN2c3ccccc3Sc3ccc(Cl)cc32)CC1` , what is it?
Reply | active

Ask | And then `CC(=O)CCC(=O)O` , what is it?
Reply | inactive

Ask | And then `Nc1ccc(S(=O)(=O)Nc2nccs2)cc1` , what is it?
Reply | inactive

Ask | And then `NCC(=O)CCC(=O)O` , what is it?
Reply | inactive
